target: RXRα (Homo sapiens, UniProt P19793); construct: RXRα-LBD; experiment: SPR (Biacore S200, immobilized RXRα-LBD); supported by antagonism of 9-cis-RA in GAL4-RXRα-LBD reporter assay
Sequence (P19793 198-462): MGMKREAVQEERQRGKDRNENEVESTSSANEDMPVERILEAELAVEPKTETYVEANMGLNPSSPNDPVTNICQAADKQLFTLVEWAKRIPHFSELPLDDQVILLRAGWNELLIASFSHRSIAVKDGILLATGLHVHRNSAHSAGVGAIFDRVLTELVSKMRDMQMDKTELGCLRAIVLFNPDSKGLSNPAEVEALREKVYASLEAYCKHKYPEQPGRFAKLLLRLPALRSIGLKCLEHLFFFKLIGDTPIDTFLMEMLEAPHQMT
observation-type: Kd (µM)
Provide only the numeric value, understood in µM.

Q: Param item = COc1c(O)cc2oc3cc(O)c(CC=C(C)C)c(O)c3c(=O)c2c1CC=C(C)C [compound 3, α-Mangostin] ; retrieve measured Kd.
A: 39
